Target: Muscarinic acetylcholine receptor M2 (Sus scrofa, UniProt P06199)
Sequence (P06199 whole entry): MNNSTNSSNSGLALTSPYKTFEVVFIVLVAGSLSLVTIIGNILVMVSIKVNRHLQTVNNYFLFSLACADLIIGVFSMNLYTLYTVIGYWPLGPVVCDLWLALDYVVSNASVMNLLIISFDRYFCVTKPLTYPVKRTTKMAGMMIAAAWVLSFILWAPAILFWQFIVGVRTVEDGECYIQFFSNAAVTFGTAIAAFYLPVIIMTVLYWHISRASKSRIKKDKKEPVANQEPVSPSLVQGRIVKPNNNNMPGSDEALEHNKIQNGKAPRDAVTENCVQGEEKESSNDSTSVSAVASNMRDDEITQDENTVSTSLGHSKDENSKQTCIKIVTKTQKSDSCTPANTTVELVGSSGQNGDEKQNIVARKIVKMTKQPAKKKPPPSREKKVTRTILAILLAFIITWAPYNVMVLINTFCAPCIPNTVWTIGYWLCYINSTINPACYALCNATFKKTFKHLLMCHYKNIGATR
Experiment: Effective concentration required to inhibit dissociation of [3H]NMS from porcine heart ventricles muscarinic acetylcholine receptor M2.
Endpoint: EC50 (nM)

compound=Cc1ccc2c(c1)C(=O)N(CC(C)(C)C[N+](C)(C)CCCCCC[N+](C)(C)CCCN1C(=O)c3ccccc3C1=O)C2=O assay_result=55

1: C[N+](C)(CCCCCC[N+](C)(C)CCCN1C(=O)C2C3c4ccccc4C(c4ccccc43)C2C1=O)CCCN1C(=O)C2C3c4ccccc4C(c4ccccc43)C2C1=O (stereo not drawn)
2: CC(C)(CN1C(=O)c2cccc3cccc(c23)C1=O)C[N+](C)(C)CCCCCC[N+](C)(C)CC(C)(C)CN1C(=O)c2cccc3cccc(c23)C1=O
Prompt: Which of the two gives a bigger number for EC50: 1 or 2 ? Answer by stating the label of the chosen item.
Response: 1
